# assay.overview: Clearance in mouse at 1 mg/kg, iv
# Format: ADME, organism-based
# settings: in vivo
recorded.metric: clearance (mL/min/kg)

>>> print(df.to_string())
                                   molecule  assay_value
0  CC1CN(CC2CCN(Cc3ccccc3)CC2)C(=O)N(c2cccc(C(=N)N)c2)C1 (stereo unspecified)           38

----------
# target.of.assay: Suppressor of tumorigenicity 14 protein (Homo sapiens, UniProt Q9Y5Y6)
# Sequence (Q9Y5Y6 whole entry, the tested form may be a part): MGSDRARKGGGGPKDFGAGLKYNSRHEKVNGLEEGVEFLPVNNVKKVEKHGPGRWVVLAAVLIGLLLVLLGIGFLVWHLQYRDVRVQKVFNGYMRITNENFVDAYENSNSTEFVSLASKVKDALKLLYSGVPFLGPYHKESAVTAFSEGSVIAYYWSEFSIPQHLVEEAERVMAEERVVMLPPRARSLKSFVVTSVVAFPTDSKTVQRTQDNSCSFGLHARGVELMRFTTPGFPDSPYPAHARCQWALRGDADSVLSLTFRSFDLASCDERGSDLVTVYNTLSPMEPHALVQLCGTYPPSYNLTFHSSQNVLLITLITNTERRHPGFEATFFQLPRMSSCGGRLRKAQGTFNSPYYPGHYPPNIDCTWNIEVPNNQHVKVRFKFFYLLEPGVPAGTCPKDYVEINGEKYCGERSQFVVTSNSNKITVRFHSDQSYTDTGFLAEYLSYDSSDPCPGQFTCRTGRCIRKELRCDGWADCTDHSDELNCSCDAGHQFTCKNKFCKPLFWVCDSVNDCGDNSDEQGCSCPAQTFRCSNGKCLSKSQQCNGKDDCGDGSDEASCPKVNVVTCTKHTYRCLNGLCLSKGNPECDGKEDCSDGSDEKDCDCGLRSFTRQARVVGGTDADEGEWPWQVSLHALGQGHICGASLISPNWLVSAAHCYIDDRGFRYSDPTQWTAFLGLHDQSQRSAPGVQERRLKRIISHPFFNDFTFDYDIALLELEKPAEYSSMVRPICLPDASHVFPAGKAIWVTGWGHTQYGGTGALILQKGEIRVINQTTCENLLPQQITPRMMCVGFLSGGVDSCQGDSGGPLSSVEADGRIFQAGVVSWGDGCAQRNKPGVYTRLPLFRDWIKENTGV
# assay.overview: Inhibition of human recombinant matripase catalytic domain using H2N(EEdansyl)GKQLRVVNGG (KDabcyl)-NH2 as substrate by fluorometric analysis
Threshold 1 µM. Ki below it: Satisfied. Ki at it or above: Not satisfied.

>>> print(df.to_string())
                                   compound                           target_of_assay   answer_label
0  CC1CN(CC2CCN(Cc3ccccc3)CC2)C(=O)N(c2cccc(C(=N)N)c2)C1 (centres undefined)  Suppressor of tumorigenicity 14 protein (Homo sapiens, UniProt Q9Y5Y6)      Satisfied
1  N=C(N)c1cccc(N2CC(O)CN(CC3CCN(Cc4ccccc4)CC3)C2=O)c1 (centres undefined)  Suppressor of tumorigenicity 14 protein (Homo sapiens, UniProt Q9Y5Y6)      Satisfied
2  N=C(N)c1cccc(N2CC(CNC(=O)Cc3ccccc3)CN(CC3CCN(Cc4ccccc4)CC3)C2=O)c1 (centres undefined)  Suppressor of tumorigenicity 14 protein (Homo sapiens, UniProt Q9Y5Y6)  Not satisfied
3  N=C(N)c1cccc(N2CC(NC(=O)Cc3ccccc3)CN(CC3CCN(Cc4ccccc4)CC3)C2=O)c1 (centres undefined)  Suppressor of tumorigenicity 14 protein (Homo sapiens, UniProt Q9Y5Y6)  Not satisfied
4  COC1CN(CC2CCN(Cc3ccccc3)CC2)C(=O)N(c2cccc(C(=N)N)c2)C1 (centres undefined)  Suppressor of tumorigenicity 14 protein (Homo sapiens, UniProt Q9Y5Y6)      Satisfied
5  CC1CN(Cc2cccc(C(=N)N)c2)C(=O)N(C2CCN(Cc3ccccc3)CC2)C1 (centres undefined)  Suppressor of tumorigenicity 14 protein (Homo sapiens, UniProt Q9Y5Y6)  Not satisfied
6  N=C(N)c1cccc(N2CC(NS(=O)(=O)c3ccccc3)CN(CC3CCN(Cc4ccccc4)CC3)C2=O)c1 (centres undefined)  Suppressor of tumorigenicity 14 protein (Homo sapiens, UniProt Q9Y5Y6)      Satisfied
7  N=C(N)c1cccc(N2CC(CNC(=O)c3ccccc3)CN(CC3CCN(Cc4ccccc4)CC3)C2=O)c1 (centres undefined)  Suppressor of tumorigenicity 14 protein (Homo sapiens, UniProt Q9Y5Y6)      Satisfied
8  CC1CN(Cc2ccc(C(=N)N)cc2)C(=O)N(C2CCN(Cc3ccccc3)CC2)C1 (centres undefined)  Suppressor of tumorigenicity 14 protein (Homo sapiens, UniProt Q9Y5Y6)  Not satisfied

----------
# target.of.assay: Trypsin (Homo sapiens, UniProt P07477+P07478+P35030)
# assay.overview: Inhibition of human recombinant trypsin using H2N(EEdansyl)GKQLRVVNGG (KDabcyl)-NH2 as substrate by fluorometric analysis
# Type: protein assay
We label by threshold. Values of Ki strictly beneath 400 nM are yes. Values of 400 nM and up are no.

                                   compound                           target_of_assay  answer_label
0  N=C(N)c1cccc(N2CC(CO)CN(CC3CCN(Cc4ccccc4)CC3)C2=O)c1 (centres undefined)  Trypsin (Homo sapiens, UniProt P07477+P07478+P35030)           yes
1  N=C(N)c1cccc(N2CC(COCc3ccccc3)CN(CC3CCN(Cc4ccccc4)CC3)C2=O)c1 (centres undefined)  Trypsin (Homo sapiens, UniProt P07477+P07478+P35030)           yes
2  N=C(N)c1cccc(N2CC(NS(=O)(=O)Cc3ccccc3)CN(CC3CCN(Cc4ccccc4)CC3)C2=O)c1 (centres undefined)  Trypsin (Homo sapiens, UniProt P07477+P07478+P35030)           yes
3  CC1CN(CC2CCN(Cc3ccccc3)CC2)C(=O)N(c2cccc(C(=N)N)c2)C1 (centres undefined)  Trypsin (Homo sapiens, UniProt P07477+P07478+P35030)            no
4  N=C(N)c1cccc(N2CC(OCc3ccccc3)CN(CC3CCN(Cc4ccccc4)CC3)C2=O)c1 (centres undefined)  Trypsin (Homo sapiens, UniProt P07477+P07478+P35030)            no
5  N=C(N)c1cccc(N2CC(CNC(=O)c3ccccc3)CN(CC3CCN(Cc4ccccc4)CC3)C2=O)c1 (centres undefined)  Trypsin (Homo sapiens, UniProt P07477+P07478+P35030)           yes
6  CC1CN(c2cccc(C(=N)N)c2)C(=O)N(C2CCN(Cc3ccccc3)CC2)C1 (centres undefined)  Trypsin (Homo sapiens, UniProt P07477+P07478+P35030)            no
7  COCC1CN(CC2CCN(Cc3ccccc3)CC2)C(=O)N(c2cccc(C(=N)N)c2)C1 (centres undefined)  Trypsin (Homo sapiens, UniProt P07477+P07478+P35030)           yes

----------
# assay.overview: Cmax in mouse at 5 mg/kg, po
# Type: ADME, organism-based
# Design: dose 5 mg/kg, route oral
# settings: in vivo
recorded.metric: Cmax (ng/mL)

>>> print(df.to_string())
                                   compound  reading_unit  assay_value
0  CC1CN(CC2CCN(Cc3ccccc3)CC2)C(=O)N(c2cccc(C(=N)N)c2)C1 (stereo unspecified)         ng/mL         4.45

----------
# target.of.assay: UniProt:P05981
# Sequence (P05981 1-162 limits assumed): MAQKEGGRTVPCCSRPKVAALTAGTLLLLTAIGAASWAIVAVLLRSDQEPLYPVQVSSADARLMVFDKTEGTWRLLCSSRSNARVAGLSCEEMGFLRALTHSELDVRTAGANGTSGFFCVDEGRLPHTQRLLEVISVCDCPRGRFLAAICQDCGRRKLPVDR
# Sequence (P05981 163-417 limits assumed): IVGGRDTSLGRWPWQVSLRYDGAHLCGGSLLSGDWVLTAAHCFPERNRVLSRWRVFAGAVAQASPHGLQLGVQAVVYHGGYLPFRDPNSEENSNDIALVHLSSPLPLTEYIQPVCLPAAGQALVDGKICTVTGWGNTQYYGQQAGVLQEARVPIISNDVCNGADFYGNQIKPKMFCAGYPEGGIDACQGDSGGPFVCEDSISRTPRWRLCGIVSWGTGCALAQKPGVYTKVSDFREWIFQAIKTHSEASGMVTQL
# assay.overview: Inhibition of human recombinant hepsin using H2N(EEdansyl)GKQLRVVNGG (KDabcyl)-NH2 as substrate by fluorometric analysis
pKi: −log10 of the molar value.
Heads up, the class ranges for pKi are low interval = under 5, middle interval = from 5 up to 6, high interval = 6 and over

                                   molecule     answer_label
0  N=C(N)c1cccc(N2CC(NS(=O)(=O)Cc3ccccc3)CN(CC3CCN(Cc4ccccc4)CC3)C2=O)c1 (centres undefined)    high interval
1  N=C(N)c1cccc(NC(=O)NC2CCN(Cc3ccccc3)CC2)c1     low interval
2  CC1CN(c2ccc(C(=N)N)cc2)C(=O)N(C2CCN(Cc3ccccc3)CC2)C1 (centres undefined)     low interval
3  CC1CN(Cc2cccc(C(=N)N)c2)C(=O)N(C2CCN(Cc3ccccc3)CC2)C1 (centres undefined)     low interval
4  CC1CN(CCC2CCN(Cc3ccccc3)CC2)C(=O)N(c2cccc(C(=N)N)c2)C1 (centres undefined)  middle interval
5  N=C(N)c1cccc(N2CC(CNC(=O)Cc3ccccc3)CN(CC3CCN(Cc4ccccc4)CC3)C2=O)c1 (centres undefined)    high interval

----------
# assay.overview: Volume of distribution in mouse at 1 mg/kg, iv
# Type: ADME, organism-based
# settings: in vivo
recorded.metric: Vd (L/kg)

                                   molecule  recorded_metric  assay_value
0  CC1CN(CC2CCN(Cc3ccccc3)CC2)C(=O)N(c2cccc(C(=N)N)c2)C1 (stereo unspecified)               Vd         4.49

----------
# target.of.assay: Prothrombin (Homo sapiens, UniProt P00734)
# assay.overview: Inhibition of human recombinant thrombin using H2N(EEdansyl)GKQLRVVNGG (KDabcyl)-NH2 as substrate by fluorometric analysis
recorded.metric: log10 of Ki (log10 of the value in µM)

>>> print(df.to_string())
                                    compound                           target_of_assay  assay_value
 0  N=C(N)c1cccc(N2CC(COCc3ccccc3)CN(CC3CCN(Cc4ccccc4)CC3)C2=O)c1 (centres undefined)  Prothrombin (Homo sapiens, UniProt P00734)         0.33
 1  N=C(N)c1cccc(N2CC(NS(=O)(=O)Cc3ccccc3)CN(CC3CCN(Cc4ccccc4)CC3)C2=O)c1 (centres undefined)  Prothrombin (Homo sapiens, UniProt P00734)         1.13
 2  N=C(N)c1cccc(N2CC(CO)CN(CC3CCN(Cc4ccccc4)CC3)C2=O)c1 (centres undefined)  Prothrombin (Homo sapiens, UniProt P00734)         0.87
 3  CC1CN(Cc2ccc(C(=N)N)cc2)C(=O)N(C2CCN(Cc3ccccc3)CC2)C1 (centres undefined)  Prothrombin (Homo sapiens, UniProt P00734)         1.91
 4  CC1CN(CC2CCN(Cc3ccccc3)CC2)C(=O)N(c2cccc(C(=N)N)c2)C1 (centres undefined)  Prothrombin (Homo sapiens, UniProt P00734)         1.06
 5  CC1CN(c2cccc(C(=N)N)c2)C(=O)N(C2CCN(Cc3ccccc3)CC2)C1 (centres undefined)  Prothrombin (Homo sapiens, UniProt P00734)         1.56
 6  N=C(N)c1cccc(N2CC(NC(=O)Cc3ccccc3)CN(CC3CCN(Cc4ccccc4)CC3)C2=O)c1 (centres undefined)  Prothrombin (Homo sapiens, UniProt P00734)         1.63
 7  N=C(N)c1cccc(N2CC(NS(=O)(=O)c3ccccc3)CN(CC3CCN(Cc4ccccc4)CC3)C2=O)c1 (centres undefined)  Prothrombin (Homo sapiens, UniProt P00734)         1.23
 8  N=C(N)c1cccc(N2CC(O)CN(CC3CCN(Cc4ccccc4)CC3)C2=O)c1 (centres undefined)  Prothrombin (Homo sapiens, UniProt P00734)         1.34
 9  N=C(N)c1cccc(N2CC(OCc3ccccc3)CN(CC3CCN(Cc4ccccc4)CC3)C2=O)c1 (centres undefined)  Prothrombin (Homo sapiens, UniProt P00734)         1.47
10  COCC1CN(CC2CCN(Cc3ccccc3)CC2)C(=O)N(c2cccc(C(=N)N)c2)C1 (centres undefined)  Prothrombin (Homo sapiens, UniProt P00734)         0.91
